# RUN_DESCRIPTION: In vivo determination of Kp,uu,brain in mice
# CONDITION_SUMMARY: male, CD1 (ICR), plasma (unbound); mouse, 100 mg/kg oral, 2 h; using mouse fu,plasma 0.0667; read-out: Unbound plasma conc. (Cu, plasma) ± SD
MEASUREMENT_LABEL: concentration at 2 h (nM)

INSERT INTO results (molecule, recorded_measurement) VALUES
  ('[2H]C([2H])([2H])c1c(Oc2c(F)cc(C#N)cc2F)nc(N)nc1C(F)(F)F [Example 1]', 1250);

---

# RUN_DESCRIPTION: Determination of pharmacokinetics in mice
# Format: in vivo, mouse
# CONDITION_SUMMARY: mouse, whole blood (dried blood spot); male CD-1 mice, PO 10 mg/kg vs IV 1 mg/kg
Some compounds, each annotated with its measured bioavailability.
MEASUREMENT_LABEL: bioavailability (%)

INSERT INTO measurements (compound, measurement_label, recorded_measurement) VALUES
  ('[2H]C([2H])([2H])c1c(Oc2c(F)cc(C#N)cc2F)nc(N)nc1C(F)(F)F', 'bioavailability', 60),
  ('Cc1c(Oc2c(F)cc(C#N)cc2F)nc(N)nc1C(F)(F)F [Compound A, reference compound]', 'bioavailability', 34);

---

# RUN_DESCRIPTION: Intrinsic clearance in human cryopreserved hepatocytes
# Assay type: in vitro ADME
# CONDITION_SUMMARY: 0.3 μM substrate, 37° C.
MEASUREMENT_LABEL: hepatocyte CLint at 0.3 μM (µL/min/1e6 cells)

INSERT INTO measurements (molecule, measurement_label, recorded_measurement) VALUES
  ('Cc1c(Oc2c(F)cc(C#N)cc2F)nc(N)nc1C(F)(F)F [Compound A, reference compound]', 'hepatocyte CLint at 0.3 μM', 2.62),
  ('[2H]C([2H])([2H])c1c(Oc2c(F)cc(C#N)cc2F)nc(N)nc1C(F)(F)F [Example 1]', 'hepatocyte CLint at 0.3 μM', 6.47);

---

# RUN_DESCRIPTION: Determination of pharmacokinetics in mice
# Format: in vivo, mouse
# CONDITION_SUMMARY: mouse, whole blood (dried blood spot); male CD-1 mice, IV 1 mg/kg; read-out: Vd, ss
MEASUREMENT_LABEL: Vd (L/kg)

INSERT INTO results (molecule, recorded_measurement) VALUES
  ('Cc1c(Oc2c(F)cc(C#N)cc2F)nc(N)nc1C(F)(F)F [Compound A, reference compound]', 6.6),
  ('[2H]C([2H])([2H])c1c(Oc2c(F)cc(C#N)cc2F)nc(N)nc1C(F)(F)F [Example 1]', 9.5);

---

# RUN_DESCRIPTION: In vivo determination of Kp,uu,brain in mice
# CONDITION_SUMMARY: male, CD1 (ICR), brain (unbound); mouse, 100 mg/kg oral, 2 h; using mouse fu,brain 0.011; read-out: Unbound brain conc. (Cu, brain) ± SD
MEASUREMENT_LABEL: concentration at 2 h (µM)

INSERT INTO measurements (line_notation, recorded_measurement) VALUES
  ('[2H]C([2H])([2H])c1c(Oc2c(F)cc(C#N)cc2F)nc(N)nc1C(F)(F)F', 0.706);

---

# SYSTEM_TESTED: human MrgX1 receptor (Homo sapiens)
# Sequence (Q96LB2 whole entry): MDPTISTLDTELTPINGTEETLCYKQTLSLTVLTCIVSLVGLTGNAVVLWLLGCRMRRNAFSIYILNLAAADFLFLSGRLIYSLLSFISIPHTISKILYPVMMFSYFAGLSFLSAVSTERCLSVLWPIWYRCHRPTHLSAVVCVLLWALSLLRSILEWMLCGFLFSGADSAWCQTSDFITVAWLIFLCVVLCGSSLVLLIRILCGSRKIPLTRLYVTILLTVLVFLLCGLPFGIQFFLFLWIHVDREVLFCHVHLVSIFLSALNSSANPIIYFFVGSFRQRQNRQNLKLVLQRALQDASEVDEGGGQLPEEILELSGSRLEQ
# RUN_DESCRIPTION: IP1 cellular assay for EC50 determination against hMrgX1 by HTRF
# CONDITION_SUMMARY: HEK293 cells expressing human MrgX1, in presence of EC15 of BAM8-22; geometric mean (SEM, n); read-out: Relative EC50 (SEM, n)
pEC50: −log10 of the molar value.
MEASUREMENT_LABEL: pEC50

INSERT INTO results (line_notation, measurement_label, recorded_measurement) VALUES
  ('[2H]C([2H])([2H])c1c(Oc2c(F)cccc2F)nc(N)nc1C(F)(F)F', 'pEC50', 7.55),
  ('[2H]C([2H])([2H])c1c(Oc2c(F)cc(C#N)cc2F)nc(N)nc1C(F)(F)F', 'pEC50', 7.66);

Recorded values, source patent US20250002461A1.
